molecular target: PfCK2α (protein kinase CK2 catalytic α subunit), PfCK2αD179S (Plasmodium falciparum, UniProt Q8IIR9, D179S); construct: Ile12 to Ser335 (catalytic domain), hexa-histidine tag at C-terminus; assay: co-crystal structure at […] Å without Mg2+; ITC (KD […] without Mg2+, […] with […] Mg2+)
measure-name: Kd (µM)
# output: bare number, implied unit µM

### Prompt Supply measured Kd of Nc1ncnc2c1ncn2[C@@H]1O[C@H](COP(=O)(O)OP(=O)(O)OP(=O)(O)O)[C@@H](O)[C@H]1O in your reply.
### Response 22.3

----------
target: PfCK2 (PfCK2α, protein kinase CK2 catalytic subunit) (Plasmodium falciparum); construct: Ile12 to Ser335 of PfCK2α; experiment: radiometric peptide kinase assay with γ[…]-ATP ([…] ATP)
Sequence (Q8IIR9 entry or part of it): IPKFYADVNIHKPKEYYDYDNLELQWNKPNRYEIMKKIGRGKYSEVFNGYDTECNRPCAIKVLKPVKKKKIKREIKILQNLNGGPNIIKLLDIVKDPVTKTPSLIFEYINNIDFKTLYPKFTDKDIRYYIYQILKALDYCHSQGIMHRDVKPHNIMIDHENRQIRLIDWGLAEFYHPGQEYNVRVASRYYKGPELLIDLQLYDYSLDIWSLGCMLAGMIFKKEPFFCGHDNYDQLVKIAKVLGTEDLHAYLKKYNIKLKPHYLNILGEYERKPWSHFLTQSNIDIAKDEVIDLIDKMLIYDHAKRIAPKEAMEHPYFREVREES
measure-name: IC50 (nM)
Respond numerically; units are nM and should not be typed.

### Prompt Specify reported IC50 for the compound shown: O=C(O)c1ccc2c(c1)nc(Nc1cccc(Cl)c1)c1ccncc12 [CX4945]
### Response 13.2

Source listed as paper PMC5943518.
